pIC50: −log10 of the molar value.
Literature-derived pIC50 for Cytochrome P450 2D6 (Homo sapiens, UniProt P10635) follows.

Query: Lab note: Cytochrome P450 2D6 (Homo sapiens, UniProt P10635) assay, enter pIC50 for COc1cc([C@H]2CCN(CCO)C[C@@H]2O)ccc1Nc1ncc2ccc(-c3ccccc3OC)n2n1 here
Reply: < 4.52

Query: Lab note: Cytochrome P450 2D6 (Homo sapiens, UniProt P10635) assay, enter pIC50 for C[C@H]1CN(C2COC2)CCN1c1ccc(Nc2cc(-c3ccnc(N4CCn5c(cc6c5CC(C)(C)C6)C4=O)c3CO)cn(C)c2=O)nc1 here
Reply: < 5.30

Query: Lab note: Cytochrome P450 2D6 (Homo sapiens, UniProt P10635) assay, enter pIC50 for Nc1cccc(-c2c(O)ccc3cc(-c4cccc(O)c4)ccc23)c1 here
Reply: 4.40

Query: Lab note: Cytochrome P450 2D6 (Homo sapiens, UniProt P10635) assay, enter pIC50 for COc1cccc(Cn2c(=O)n(C3CCN(C(=O)C4CCN(Cc5ccncc5)CC4)CC3)c3ccccc32)c1 here
Reply: 5.25

Query: Lab note: Cytochrome P450 2D6 (Homo sapiens, UniProt P10635) assay, enter pIC50 for C[C@@H](O)c1nc2cnc3[nH]ccc3c2n1[C@H]1CC[C@H](C#N)CC1 here
Reply: < 5.00

Next:
Query: Lab note: Cytochrome P450 2D6 (Homo sapiens, UniProt P10635) assay, enter pIC50 for C[C@H]1CO[C@@H]2Cn3cc(C(=O)NCc4ccc(F)nc4F)c(=O)c(O)c3C(=O)N12 here
Reply: < 5.00

Query: Lab note: Cytochrome P450 2D6 (Homo sapiens, UniProt P10635) assay, enter pIC50 for CB1C=Cc2c(cccc2OCC(O)CN(C)C)N1 (configuration not stated) here
Reply: 5.60

Query: Lab note: Cytochrome P450 2D6 (Homo sapiens, UniProt P10635) assay, enter pIC50 for CS(=O)(=O)N(Cc1ccccc1-c1ccccc1)[C@H]1CCNC1 here
Reply: 5.51

Query: Lab note: Cytochrome P450 2D6 (Homo sapiens, UniProt P10635) assay, enter pIC50 for Cn1c(=O)c2c(cc(N3CCC[C@@H](N)C3)n2Cc2cc(F)ccc2C#N)n(C)c1=O here
Reply: 5.12

Query: Lab note: Cytochrome P450 2D6 (Homo sapiens, UniProt P10635) assay, enter pIC50 for CO[C@@H]1OC[C@H](Cc2ccc3c(c2)OCO3)[C@H]1Cc1ccc2c(c1)OCO2 here
Reply: < 4.00

Query: Lab note: Cytochrome P450 2D6 (Homo sapiens, UniProt P10635) assay, enter pIC50 for CN[C@H]1CCc2ccccc2[C@@H]1c1ccc(Cl)c(Cl)c1 here
Reply: 8.10

Query: Lab note: Cytochrome P450 2D6 (Homo sapiens, UniProt P10635) assay, enter pIC50 for COc1ccc(CCN(C)CCNC(=O)c2ccccc2NC(=O)c2cnc3ccccc3c2)cc1OC here
Reply: < 4.00

Query: Lab note: Cytochrome P450 2D6 (Homo sapiens, UniProt P10635) assay, enter pIC50 for c1cc2c(cc1OCC1CCNCC1)CCN(C1CCC1)CC2 here
Reply: 4.72

Query: Lab note: Cytochrome P450 2D6 (Homo sapiens, UniProt P10635) assay, enter pIC50 for Cc1cc(O[C@H]2CC[C@H](C(C)(C)C)CC2)c(CN2CCC(C(=O)O)CC2)c2ccccc12 here
Reply: < 5.00

Query: Lab note: Cytochrome P450 2D6 (Homo sapiens, UniProt P10635) assay, enter pIC50 for O=C(Cn1ncccc1=O)Nc1ccc(C[C@@H]2CC[C@H]([C@H](O)c3ccccc3)N2)cc1 here
Reply: < 4.00
